# target.desc: Sortase A (Staphylococcus aureus, UniProt Q9S446)
# Sequence (Q9S446 whole entry): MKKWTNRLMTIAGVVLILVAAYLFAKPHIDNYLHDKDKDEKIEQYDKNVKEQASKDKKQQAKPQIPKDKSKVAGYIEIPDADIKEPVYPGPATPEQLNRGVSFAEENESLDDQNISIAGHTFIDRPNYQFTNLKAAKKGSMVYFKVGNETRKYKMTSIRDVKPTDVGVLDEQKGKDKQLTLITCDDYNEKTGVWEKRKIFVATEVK
# assay.info: Inhibition of Staphylococcus aureus sortase A using dabcyl-QALPETGEE-edans as substrate incubated for 1 hr prior to substrate addition measured at 1 min interval for 1 hr by FRET analysis
# test.parameters: read-out: IC50
quantity.measured: pIC50
// pIC50 is dimensionless: -log10 of concentration (M)

>  <chemical.smiles>
O=C(Cn1sc2ccccc2c1=O)NNC(=O)C12CC3CC(CC(C3)C1)C2

>  <pIC50>
5.42

$$$$
>  <chemical.smiles>
O=C(O)CCn1sc2ccccc2c1=O

>  <pIC50>
4.89

$$$$
>  <chemical.smiles>
O=C(Cn1sc2ccccc2c1=O)NC12CC3CC(CC(C3)C1)C2

>  <pIC50>
5.21

$$$$
>  <chemical.smiles>
O=C(CCn1sc2cccc(F)c2c1=O)NC12CC3CC(CC(O)(C3)C1)C2

>  <pIC50>
5.20

$$$$
>  <chemical.smiles>
CC12CC3(C)CC(O)(C1)CC(NC(=O)CCn1sc4cccc(F)c4c1=O)(C2)C3

>  <pIC50>
5.40

$$$$

Ask | pIC50 lookup needed for O=C(CCn1sc2ccccc2c1=O)NC12CC3CC(CC(C3)C1)C2 , thanks.
Reply | 5.42

Ask | # pIC50 lookup, item O=C(CCn1sc2ccccc2c1=O)NC12CC3CC(CC(O)(C3)C1)C2
Reply | 5.19

Ask | Look up pIC50 for this molecule: CC12CC3CC(C)(C1)CC(NC(=O)CCn1sc4ccccc4c1=O)(C3)C2
Reply | 5.34

---

# System: Staphylococcus aureus
# assay.info: Antibacterial activity against Staphylococcus aureus ATCC 25904 after 24 hrs by broth dilution method
# Assay type: functional
# test.parameters: ATCC 25904, 24 h
Lab note - cut at 40 µM for MIC: t if strictly below, f if not.

Solved entries (count: 5):
>  <molecule>
C=CS(=O)(=O)c1ccccc1 [(ETHENYLSULFONYL)BENZENE]

>  <assigned.label>
f

$$$$
>  <molecule>
CC12CC3(C)CC(O)(C1)CC(NC(=O)CCn1sc4cccc(F)c4c1=O)(C2)C3

>  <assigned.label>
t

$$$$
>  <molecule>
O=C(CCn1sc2ccccc2c1=O)NC12CC3CC(CC(C3)C1)C2

>  <assigned.label>
t

$$$$
>  <molecule>
COC(=O)C12CC3CC(CC(NC(=O)CCn4sc5ccccc5c4=O)(C3)C1)C2

>  <assigned.label>
t

$$$$
>  <molecule>
O=C(Cn1sc2ccccc2c1=O)NC12CC3CC(CC(C3)C1)C2

>  <assigned.label>
t

$$$$

Ask | Identify whether the molecule COC(=O)C12CC3CC(CC(NC(=O)CCn4sc5cccc(F)c5c4=O)(C3)C1)C2 records MIC below 40 µM.
Reply | t

Ask | API: query returns whether the molecule falls strictly under 40 µM in MIC. Query: O=C(CN1Cc2ccccc2C1=O)NC12CC3CC(CC(C3)C1)C2
Reply | f

Ask | In the record for CC12CC3CC(C)(C1)CC(NC(=O)Cn1sc4ccccc4c1=O)(C3)C2 , is MIC less than 40 µM?
Reply | f

Ask | Consider the molecule O=C(CCn1sc2cccc(F)c2c1=O)NC12CC3CC(CC(C3)C1)C2 . Is its MIC strictly less than 40 µM?
Reply | f

Ask | Does this molecule meet the criterion MIC < 40 µM? CC12CC3CC(C)(C1)CC(NC(=O)CCn1sc4ccccc4c1=O)(C3)C2
Reply | t

Ask | Does the reported MIC of the following molecule sit strictly below 40 µM? O=C(CCn1sc2cccc(F)c2c1=O)NC12CC3CC(CC(O)(C3)C1)C2
Reply | f

Ask | Dear reviewer, please state whether Cl.NC12CC3CC(CC(C3)C1)C2 [AMANTADINE HYDROCHLORIDE] has MIC strictly beneath 40 µM.
Reply | f

Ask | Given the entry O=C(CCn1sc2cccc(F)c2c1=O)NNC(=O)C12CC3CC(CC(C3)C1)C2 , would its reported MIC be below 40 µM?
Reply | t
